# System: Fam108B (ABHD17B) serine hydrolase [Mus musculus]
# measurement_description: mouse Fam108B serine hydrolase inhibitors, primary screen, counter-screen for RBBP9 inhibitor project, biochemical, fluorescence polarization (AID 1947);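 further: inhibitors lower polarization as less probe binds the enzyme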
# assay_conditions: recombinant Fam108B, FP-Rh probe fluorescence polarization; at 9.51 µM; active compounds read high
The whole screen tested about 300,000 compounds, of which about 990 (0.33%) were called active. The sample as a whole holds a higher share of actives than the screen did.
compounds and their reported inhibition
Numbers only; they are read as %.

COCCOC(=O)c1sc(=S)n(CCOC)c1N = 30.9
CCCCCCC(=O)Nc1nc(C)c(-c2csc(Nc3cccc(OC)c3)n2)s1 = 12.5

Given the compound "CC(=O)Nc1ccc(S(=O)(=O)Nc2nc(-c3ccc(C(C)(C)C)cc3)cs2)cc1" , what is its reported inhibition?
5.38

Given the compound "COc1ccc2oc(=O)c(C(=O)NCc3ccccn3)cc2c1" , what is its reported inhibition?
1.13

----------
molecules and their reported inhibition
# Test system: Fam108B (ABHD17B) serine hydrolase [Mus musculus]
# measurement_description: mouse Fam108B serine hydrolase inhibitors, primary screen, counter-screen for RBBP9 inhibitor project, biochemical, fluorescence polarization (AID 1947);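 further: inhibitors lower polarization as less probe binds the enzyme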
# assay_conditions: recombinant Fam108B, FP-Rh probe fluorescence polarization; at 9.51 µM; active compounds read high
The campaign covered roughly 300,000 compounds. About 990 (0.33%) were called active. Shown is part of a subset that was picked to be rich in actives.
Numbers only; they are read as %.

Would you please look over these solved cases?
CSc1c(SCc2ccccc2)cnn(Cc2ccccc2)c1=O = 52.1
CC(=O)NC1=NN(C(C)=O)C(C)(c2ccc(Cl)s2)S1 (stereo not given) = -2.49
Cc1ccccc1NC(=O)c1cc(S(=O)(=O)Nc2cccc(C(=O)O)c2)ccc1Cl = -0.84
COc1ccccc1C1C(C#N)=C(N)Oc2c1c(-c1ccccc1)nn2-c1ccccc1 (stereo not given) = 24.5
Cc1nn(-c2ccccc2)c2c1C(c1ccc(F)cc1)C(C#N)=C(N)O2 (stereo not given) = 4.31

Given the molecule "O=C(CCC(=O)n1ncc2ccccc21)NCc1ccccc1Cl" , what is its reported inhibition?
0.79

Given the molecule CSCCC1NC2(C(=O)Nc3ccc(Cl)cc32)[C@@H]2C(=O)N(C3CCCC3)C(=O)[C@H]12 (stereo not given in full) , what is its reported inhibition?
-1.72

Given the molecule "CC(=O)Nc1ccc(NC(=O)CSc2ncnc3c2cnn3Cc2ccccc2)cc1" , what is its reported inhibition?
1.73

Given the molecule Cc1nn(Cc2ccccc2)c2c1C(c1ccccc1)C(C#N)=C(N)O2 (stereo not given) , what is its reported inhibition?
4.14

Given the molecule "COCCNC(=O)c1ccccc1NS(=O)(=O)c1ccc(C)c([N+](=O)[O-])c1" , what is its reported inhibition?
-2.57

----------
compounds and their reported inhibition
# Tested on: Fam108B (ABHD17B) serine hydrolase [Mus musculus]
# measurement_description: mouse Fam108B serine hydrolase inhibitors, primary screen, counter-screen for RBBP9 inhibitor project, biochemical, fluorescence polarization (AID 1947);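 further: inhibitors lower polarization as less probe binds the enzyme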
# assay_conditions: recombinant Fam108B, FP-Rh probe fluorescence polarization; at 9.51 µM; active compounds read high
The whole screen tested about 300,000 compounds, of which about 990 (0.33%) were called active. The list comes from a sample in which actives are over-represented; it also holds close analogues and randomly drawn compounds.
Numbers only; they are read as %.

Given the compound CC(Cc1cccs1)N(Cc1ccc(Cl)cc1)C(=O)c1ccncc1 (stereo not given) , what is its reported inhibition?
0.27

Given the compound "O=C(Nc1ccc2ccccc2c1)Nc1ccc2snnc2c1" , what is its reported inhibition?
-25.9

Given the compound "COC(=O)c1sc(=S)n(-c2ccc(Cl)cc2)c1C" , what is its reported inhibition?
0.66

Given the compound "O=[N+]([O-])c1ccc(N/N=C/c2ccccc2)cc1" , what is its reported inhibition?
5.14

Given the compound "O=Cc1c(NCCCN2CCCC2=O)c2ccccc2[nH]c1=O" , what is its reported inhibition?
0.62

Given the compound "Cc1c(C(=O)N2CCCc3ccccc32)sc2nc(-c3ccccc3)cn12" , what is its reported inhibition?
2.92

Given the compound "O=C(NCc1ccccn1)c1ccc2nc(-c3ccco3)c(-c3ccco3)nc2c1" , what is its reported inhibition?
39.1

Given the compound CN(C)c1ccc(NC(=O)CN2C3CCCC2CC(NC(=O)c2ccccc2)C3)cc1 (stereo not given) , what is its reported inhibition?
-3.02

----------
compounds and their reported inhibition
# System: Fam108B (ABHD17B) serine hydrolase [Mus musculus]
# measurement_description: mouse Fam108B serine hydrolase inhibitors, primary screen, counter-screen for RBBP9 inhibitor project, biochemical, fluorescence polarization (AID 1947);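 further: inhibitors lower polarization as less probe binds the enzyme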
# assay_conditions: recombinant Fam108B, FP-Rh probe fluorescence polarization; at 9.51 µM; active compounds read high
Screen size: about 300,000 compounds; about 990 (0.33%) were called active. The full list was thinned out, with actives kept by preference.
Numbers only; they are read as %.

Would you please look over these solved cases?
CCOC(=O)c1c(N)sc(C(C)=O)c1C = 2.44
Cc1nc(NC(=O)c2cccc(Cl)c2)sc1-c1csc(Nc2cccc(Cl)c2)n1 = 61.2
CCOc1ccc(N2CC(C(=O)NCCN3C(=O)S/C(=C\c4cccnc4)C3=O)CC2=O)cc1 (configuration not stated) = 0.71

Given the compound CC1CC(C)CN(S(=O)(=O)c2cccc(C(=O)N3C(=O)c4cccc(N)c4C3=O)c2)C1 (configuration not stated) , what is its reported inhibition?
-1.13

Given the compound "O=C(NC1CC1)c1ccc(-c2ccccc2)cc1" , what is its reported inhibition?
34.3

Given the compound "CC(C)[C@H](NC(=O)N1CC(=O)Nc2ccccc21)C(=O)N[C@@H](Cc1c[nH]c2ccccc12)C(=O)O" , what is its reported inhibition?
0.98

Given the compound "C=CCNC(=O)CSc1nc2scc(-c3ccco3)c2c(=O)n1CC=C" , what is its reported inhibition?
-0.48

Given the compound "Cc1cc(C)cc(NC(=O)NCc2ccccn2)c1" , what is its reported inhibition?
-2.47

Given the compound "O=C(C/C(=N\NC(=O)c1ccccc1Br)C(F)(F)F)c1cccs1" , what is its reported inhibition?
1.64

----------
# Test system: Fam108B (ABHD17B) serine hydrolase [Mus musculus]
# measurement_description: mouse Fam108B serine hydrolase inhibitors, primary screen, counter-screen for RBBP9 inhibitor project, biochemical, fluorescence polarization (AID 1947);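 further: inhibitors lower polarization as less probe binds the enzyme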
# assay_conditions: recombinant Fam108B, FP-Rh probe fluorescence polarization; at 9.51 µM; active compounds read high
Screen size: about 300,000 compounds; about 990 (0.33%) were called active. For the sample, actives were picked, then their nearest neighbours and some compounds at random.
attribute_measured: inhibition (%)
Numbers only; they are read as %.

CCCn1c(=O)c2c(C(F)(F)F)cc(-c3cccs3)nc2n(CCC)c1=O = 7.34
CC(=O)Nc1ccc(NC(=O)CC2CCCC2)cc1 = 3.46
O=C(N/N=C/c1sc(N2CCCCC2)nc1-c1cccs1)c1cccnc1 = 30.7
CC(C)c1ccc2oc(=O)cc(CN3CCN(Cc4ccccc4)CC3)c2c1 = 0.92
CC(=O)Nc1ccc(Oc2ccc3c(c2)C(=O)NC3=O)cc1 = 0.73
COc1ccc(NC(=O)CSc2nnc(Cc3ccccc3)c(=O)n2N)cc1 = 0.31

Given the compound "COc1ccc(C(=O)Nc2c(N)nc(SCC(=O)Nc3ccc(C(C)=O)cc3)[nH]c2=O)cc1" , what is its reported inhibition?
2.83

Given the compound "Cc1c(C(=O)N2CCCc3ccccc32)oc2ccccc12" , what is its reported inhibition?
0.38

Given the compound COc1ccc2oc(C(=O)N(CC(C)C)C3CCS(=O)(=O)C3)c(C)c2c1 (stereo not drawn) , what is its reported inhibition?
3.82

Given the compound COc1ccc(OCc2nnc3n2N=C(c2ccccc2)C(CC(=O)O)S3)cc1 (stereo not drawn) , what is its reported inhibition?
-0.94

Given the compound "Cc1ccccc1OCCOc1ccc([N+](=O)[O-])cc1/C=N/n1cnnc1" , what is its reported inhibition?
-2.64

Given the compound "Cc1cccc2cc3c(N)c(C(=O)N4CCCc5ccccc54)sc3nc12" , what is its reported inhibition?
18.9

Given the compound "Cc1noc(C)c1S(=O)(=O)N(C)Cc1ccccc1" , what is its reported inhibition?
-2.49

Given the compound "Cc1cccc(COc2ccccc2/C=N/Nc2ccc([N+](=O)[O-])cc2)c1" , what is its reported inhibition?
23

Given the compound C=C1C2C[C@H](O)C(C)(C)[C@@]2(O)[C@H](O)C[C@]23C[C@@](C)(O)[C@H](CC[C@H]12)[C@H]3O (stereo partly drawn) , what is its reported inhibition?
-4.05

----------
# Test system: Fam108B (ABHD17B) serine hydrolase [Mus musculus]
# measurement_description: mouse Fam108B serine hydrolase inhibitors, primary screen, counter-screen for RBBP9 inhibitor project, biochemical, fluorescence polarization (AID 1947);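 further: inhibitors lower polarization as less probe binds the enzyme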
# assay_conditions: recombinant Fam108B, FP-Rh probe fluorescence polarization; at 9.51 µM; active compounds read high
About 990 (0.33%) of roughly 300,000 compounds were called active. This is one part of a sample in which actives are shown more often than they occur.
attribute_measured: inhibition

Would you please look over these solved cases?
O=C(Nc1ccc(-c2csc(Nc3cccc(C(F)(F)F)c3)n2)cc1)c1cccc(C(F)(F)F)c1 = 37.3% (active)
C=CCCC(=O)Nc1nc(C)c(-c2csc(Nc3ccc(Cl)cc3)n2)s1 = -6.01% (inactive)
COc1ccc(C2=Nc3cc(C)ccc3OC2)cc1 = -0.41% (inactive)
CCCCCCC(=O)Nc1nc(C)c(-c2csc(Nc3cc(Cl)ccc3OC)n2)s1 = 11.8% (inactive)
Cc1cc(C)c2c(Cn3ccnc3)cc(=O)oc2c1 = -0.08% (inactive)

Given the compound "O=C(NN=C1CCC(=NNC(=O)c2cccnc2)CC1)c1cccnc1" , what is its reported inhibition?
-0.8% (inactive)

Given the compound "O=C(NNC(=O)c1ccc(-c2ccccc2)cc1)Nc1ccccc1" , what is its reported inhibition?
-2.01% (inactive)

Given the compound COc1ccc(OCC(O)CN(C)C(=O)C(C)Oc2ccccc2)cc1 (stereo not drawn) , what is its reported inhibition?
3.54% (inactive)
